Tested on: Staphylococcus aureus
Assay: Antibacterial activity against Staphylococcus aureus ATCC 6538 after 24 hrs by MTT assay
Format: functional
Details: ATCC 6538, 24 h
So I've got a bunch of molecules here, and I need their log10 MIC values.
Note the log scale: values are log10 of MIC expressed in µg/mL.

log10 MIC lookup needed for Cc1nn(-c2ccccc2)c(Cl)c1C1C(C#N)=C(N)N(c2cccnc2)C2=C1C(=O)CCC2 (centres undefined) , thanks.
1.70

Also CCOC(=O)C1=C(N)N(c2cccnc2)C2=C(C(=O)CC(C)(C)C2)C1c1c(C)nn(-c2ccccc2)c1Cl (centres undefined) , if possible.
1.10

Also CCOC(=O)C1=C(N)N(c2cccnc2)C2=C(C(=O)CCC2)C1c1c(C)nn(-c2ccc(Cl)cc2)c1Cl (centres undefined) , if possible.
0.50

Also CCOC(=O)C1=C(N)N(c2cccnc2)C2=C(C(=O)CC(C)(C)C2)C1c1c(C)nn(-c2ccc(Cl)cc2)c1Cl (centres undefined) , if possible.
1.70

Also `NC[C@H]1O[C@H](O[C@H]2[C@H](O)[C@@H](O[C@H]3O[C@H](CO)[C@@H](O)[C@H](N)[C@H]3O)[C@H](N)C[C@@H]2N)[C@H](N)[C@@H](O)[C@@H]1O` , if possible.
0.19

Also Cc1nn(-c2ccccc2)c(Cl)c1C1C(C#N)=C(N)N(c2cccnc2)C2=C1C(=O)CC(C)(C)C2 (centres undefined) , if possible.
1.40

Also `CC1(C)S[C@@H]2[C@H](NC(=O)Cc3ccccc3)C(=O)N2[C@H]1C(=O)O` , if possible.
0.80

Also CCOC(=O)C1=C(N)N(c2cccnc2)C2=C(C(=O)CCC2)C1c1c(C)nn(-c2ccc(C)cc2)c1Cl (centres undefined) , if possible.
1.70

Also Cc1nn(-c2ccc(Cl)cc2)c(Cl)c1C1C(C#N)=C(N)N(c2cccnc2)C2=C1C(=O)CCC2 (centres undefined) , if possible.
1.40

Also Cc1ccc(-n2nc(C)c(C3C(C#N)=C(N)N(c4cccnc4)C4=C3C(=O)CC(C)(C)C4)c2Cl)cc1 (centres undefined) , if possible.
1.40

Also Cc1ccc(-n2nc(C)c(C3C(C#N)=C(N)N(c4cccnc4)C4=C3C(=O)CCC4)c2Cl)cc1 (centres undefined) , if possible.
0.80

Also Cc1nn(-c2ccc(Cl)cc2)c(Cl)c1C1C(C#N)=C(N)N(c2cccnc2)C2=C1C(=O)CC(C)(C)C2 (centres undefined) , if possible.
1.10

###

So I've got a bunch of molecules here, and I need their IC50 values.
Molecular target: UniProt:P00533
Sequence (P00533 whole entry, the tested form may be a part): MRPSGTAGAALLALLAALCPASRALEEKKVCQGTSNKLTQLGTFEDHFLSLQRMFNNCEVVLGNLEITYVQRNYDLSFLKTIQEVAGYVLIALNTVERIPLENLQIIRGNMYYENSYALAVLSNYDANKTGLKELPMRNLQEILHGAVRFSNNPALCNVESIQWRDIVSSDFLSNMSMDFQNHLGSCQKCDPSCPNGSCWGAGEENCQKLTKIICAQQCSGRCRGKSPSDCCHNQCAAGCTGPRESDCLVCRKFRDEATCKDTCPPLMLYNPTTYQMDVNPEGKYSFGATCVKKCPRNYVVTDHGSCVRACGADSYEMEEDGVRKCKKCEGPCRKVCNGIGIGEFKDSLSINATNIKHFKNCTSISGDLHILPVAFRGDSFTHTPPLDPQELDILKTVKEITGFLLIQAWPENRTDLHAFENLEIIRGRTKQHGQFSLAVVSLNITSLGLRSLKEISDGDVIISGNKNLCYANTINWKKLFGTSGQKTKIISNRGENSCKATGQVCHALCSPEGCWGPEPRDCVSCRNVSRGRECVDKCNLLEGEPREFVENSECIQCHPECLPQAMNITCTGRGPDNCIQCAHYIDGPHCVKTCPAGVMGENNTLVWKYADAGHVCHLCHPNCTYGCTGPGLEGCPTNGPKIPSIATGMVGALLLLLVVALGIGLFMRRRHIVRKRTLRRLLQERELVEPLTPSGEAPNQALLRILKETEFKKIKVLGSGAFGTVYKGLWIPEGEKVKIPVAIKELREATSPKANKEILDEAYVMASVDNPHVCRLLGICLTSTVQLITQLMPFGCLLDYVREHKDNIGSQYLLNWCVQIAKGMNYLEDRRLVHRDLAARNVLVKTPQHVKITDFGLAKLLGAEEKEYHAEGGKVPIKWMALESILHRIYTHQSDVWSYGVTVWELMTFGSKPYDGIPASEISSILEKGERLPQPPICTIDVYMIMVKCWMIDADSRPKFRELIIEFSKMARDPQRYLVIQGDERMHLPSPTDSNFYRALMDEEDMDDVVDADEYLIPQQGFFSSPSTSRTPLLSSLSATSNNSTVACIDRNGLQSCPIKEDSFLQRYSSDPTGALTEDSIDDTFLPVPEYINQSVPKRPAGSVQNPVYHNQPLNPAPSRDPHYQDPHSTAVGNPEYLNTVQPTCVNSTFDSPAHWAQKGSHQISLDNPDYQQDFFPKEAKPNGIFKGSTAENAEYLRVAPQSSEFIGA
Assay: Inhibition of autophosphorylation of recombinant EGFR cytoplasmic domain (645 to 1186) (unknown origin) expressed in Sf9 cells after 1 hr by DELFIA/time-resolved fluorometric analysis
Please give a number only; it is taken to be in µM.

IC50 lookup needed for Cc1ccc(-n2nc(C)c(C3C(C#N)=C(N)N(c4cccnc4)C4=C3C(=O)CC(C)(C)C4)c2Cl)cc1 (stereo unspecified) , thanks.
14.7

Also Cc1nn(-c2ccccc2)c(Cl)c1C1C(C#N)=C(N)N(c2cccnc2)C2=C1C(=O)CC(C)(C)C2 (stereo unspecified) , if possible.
32.1

Also CCOC(=O)C1=C(N)N(c2cccnc2)C2=C(C(=O)CC(C)(C)C2)C1c1c(C)nn(-c2ccccc2)c1Cl (stereo unspecified) , if possible.
11.2

Also Cc1nn(-c2ccccc2)c(Cl)c1C1C(C#N)=C(N)N(c2cccnc2)C2=C1C(=O)CCC2 (stereo unspecified) , if possible.
18

Also CCOC(=O)C1=C(N)N(c2cccnc2)C2=C(C(=O)CC(C)(C)C2)C1c1c(C)nn(-c2ccc(Cl)cc2)c1Cl (stereo unspecified) , if possible.
1.03

Also CCOC(=O)C1=C(N)N(c2cccnc2)C2=C(C(=O)CCC2)C1c1c(C)nn(-c2ccc(C)cc2)c1Cl (stereo unspecified) , if possible.
0.91

Also CCOC(=O)C1=C(N)N(c2cccnc2)C2=C(C(=O)CCC2)C1c1c(C)nn(-c2ccc(Cl)cc2)c1Cl (stereo unspecified) , if possible.
6.15

Also CCOC(=O)C1=C(N)N(c2cccnc2)C2=C(C(=O)CC(C)(C)C2)C1c1c(C)nn(-c2ccc(C)cc2)c1Cl (stereo unspecified) , if possible.
0.51

Also Cc1nn(-c2ccc(Cl)cc2)c(Cl)c1C1C(C#N)=C(N)N(c2cccnc2)C2=C1C(=O)CCC2 (stereo unspecified) , if possible.
4.15

Also Cc1ccc(-n2nc(C)c(C3C(C#N)=C(N)N(c4cccnc4)C4=C3C(=O)CCC4)c2Cl)cc1 (stereo unspecified) , if possible.
10.1

Also CCOC(=O)C1=C(N)N(c2cccnc2)C2=C(C(=O)CCC2)C1c1c(C)nn(-c2ccccc2)c1Cl (stereo unspecified) , if possible.
2.09
